# System: CEM-SS
# assay: Cytotoxicity against Human immunodeficiency virus 1 3B infected human CEM-SS cells
# Format: functional
# recordedConditions: read-out: TC50 (the source's name)
Peptide text beside a SMILES is read from it.
CC50 overview

| compound | resultQualifier | CC50 / µM |
| --- | --- | --- |
| CC(C)C[C@H](NC(=O)[C@H](CCCCN)NC(=O)[C@H](CCCCN)NC(=O)[C@H](Cc1ccccc1)NC(=O)[C@H](CCCCN)NC(=O)[C@H](CCCCN)NC(=O)[C@H](CCCNC(=N)N)NC(=O)[C@H](Cc1ccccc1)NC(=O)[C@H](CCCNC(=N)N)NC(=O)[C@H](CCCCN)NC(=O)[C@H](Cc1ccccc1)NC(=O)[C@H](CCCNC(=N)N)NC(=O)CN)C(=O)N[C@@H](Cc1ccccc1)C(=O)N[C@@H](CCCCN)C(=O)O (H-GRFKRFRKKFKKLFK-OH) | > | 49.6 |
| CC[C@H](C)[C@H](NC(=O)[C@H](CCCNC(=N)N)NC(=O)[C@H](CCC(N)=O)NC(=O)[C@@H](NC(=O)[C@@H](NC(=O)[C@H](CCCNC(=N)N)NC(=O)[C@H](CCCCN)NC(=O)[C@@H](N)Cc1ccccc1)[C@@H](C)CC)C(C)C)C(=O)N[C@@H](CCCCN)C(=O)N[C@@H](CC(=O)O)C(=O)N[C@@H](Cc1ccccc1)C(=O)N[C@@H](CC(C)C)C(=O)N[C@@H](CCCNC(=N)N)C(=O)O (H-FKRIVQRIKDFLR-OH) | = | 10.4 |

* * *

log10(CC50) overview
# System: CEM-SS
# assay: Cytotoxicity against Human immunodeficiency virus 1 3B infected human CEM-SS cells
# Format: functional
# recordedConditions: read-out: TC50 (the source's name)
Peptide text beside a SMILES is read from it.
endpoint: log10(CC50) (log10 of the value in µM)

| compound | log10(CC50) |
| --- | --- |
| CC[C@H](C)[C@H](NC(=O)[C@H](CCCNC(=N)N)NC(=O)[C@H](CCC(N)=O)NC(=O)[C@@H](NC(=O)[C@@H](NC(=O)[C@H](CCCNC(=N)N)NC(=O)[C@H](CCCCN)NC(=O)[C@H](Cc1ccccc1)NC(=O)CN)[C@@H](C)CC)C(C)C)C(=O)N[C@@H](CCCCN)C(=O)N[C@@H](CC(=O)O)C(=O)N[C@@H](Cc1ccccc1)C(=O)N[C@@H](CC(C)C)C(=O)N[C@@H](CCCNC(=N)N)C(=O)N[C@@H](CC(N)=O)C(=O)N[C@@H](CC(C)C)C(=O)N[C@H](C(=O)O)C(C)C | 0.95 |
| CC[C@H](C)[C@H](NC(=O)[C@H](CCCCN)NC(=O)[C@H](CCCCN)NC(=O)[C@H](Cc1ccccc1)NC(=O)[C@H](CC(C)C)NC(=O)[C@H](CCCCN)NC(=O)[C@H](CCCCN)NC(=O)[C@H](NC(=O)[C@H](CCCCN)NC(=O)[C@H](CCCCN)NC(=O)[C@H](CCCNC(=N)N)NC(=O)[C@H](NC(=O)[C@H](CCCNC(=N)N)NC(=O)[C@H](CCCCN)NC(=O)[C@H](Cc1ccccc1)NC(=O)[C@H](CCCNC(=N)N)NC(=O)CN)c1ccccc1)c1ccccc1)C(=O)N[C@@H](CO)C(=O)O | 1.01 |
| CC[C@H](C)[C@H](NC(=O)[C@H](CCCCN)NC(=O)[C@H](CCCCN)NC(=O)[C@H](Cc1ccccc1)NC(=O)[C@H](CC(C)C)NC(=O)[C@H](CCCCN)NC(=O)[C@H](CCCCN)NC(=O)[C@H](CC(C)C)NC(=O)[C@H](CCCCN)NC(=O)[C@H](CCCCN)NC(=O)[C@H](CCCNC(=N)N)NC(=O)[C@@H](NC(=O)[C@H](CCCNC(=N)N)NC(=O)[C@H](CCCCN)NC(=O)[C@H](Cc1ccccc1)NC(=O)[C@H](CCCNC(=N)N)NC(=O)CN)[C@@H](C)CC)C(=O)N[C@@H](CO)C(=O)O (H-GRFKRIRKKLKKLFKKIS-OH) | 0.45 |
| CC[C@H](C)[C@H](NC(=O)[C@H](CCCCN)NC(=O)[C@H](CC(=O)O)NC(=O)[C@H](Cc1ccccc1)NC(=O)[C@H](CC(C)C)NC(=O)[C@@H](N)CCCNC(=N)N)C(=O)N[C@@H](CCCNC(=N)N)C(=O)N[C@@H](CCC(N)=O)C(=O)N[C@H](C(=O)N[C@H](C(=O)N[C@@H](CCCNC(=N)N)C(=O)N[C@@H](CCCCN)C(=O)N[C@@H](Cc1ccccc1)C(=O)O)[C@@H](C)CC)C(C)C (H-RLFDKIRQVIRKF-OH) | 1.53 |
| CC[C@H](C)[C@H](NC(=O)[C@H](CCCNC(=N)N)NC(=O)[C@H](CCCCN)NC(=O)[C@H](Cc1ccccc1)NC(=O)CN)C(=O)N[C@H](C(=O)N[C@@H](CCC(N)=O)C(=O)N[C@@H](CCCNC(=N)N)C(=O)N[C@@H](C(=O)N[C@@H](CCCCN)C(=O)N[C@@H](CC(=O)O)C(=O)N[C@@H](Cc1ccccc1)C(=O)N[C@@H](CC(C)C)C(=O)N[C@@H](CCCNC(=N)N)C(=O)N[C@@H](CC(N)=O)C(=O)N[C@@H](CC(C)C)C(=O)N[C@H](C(=O)O)C(C)C)[C@@H](C)CC)C(C)C | 1.36 |
| CC[C@H](C)[C@H](NC(=O)[C@H](CCCCN)NC(=O)[C@H](CCCCN)NC(=O)[C@H](Cc1ccccc1)NC(=O)[C@H](CC(C)C)NC(=O)[C@H](CCCCN)NC(=O)[C@H](CCCCN)NC(=O)[C@H](Cc1ccccc1)NC(=O)[C@@H]1CCCN1C(=O)[C@H](CCCCN)NC(=O)[C@H](CCCNC(=N)N)NC(=O)[C@H](Cc1ccccc1)NC(=O)[C@H](CCCNC(=N)N)NC(=O)[C@H](CCCCN)NC(=O)[C@H](Cc1ccccc1)NC(=O)[C@H](CCCNC(=N)N)NC(=O)CN)C(=O)N[C@@H](CO)C(=O)O (H-GRFKRFRKPFKKLFKKIS-OH) | 1.28 |
